ASSAY_REMARKS: Confirmatory fluorescence-based thiol-reactive (MSTI) qHTS assay for identification of artifact compounds
EXPERIMENTAL_SETUP: MSTI thiol-reactivity probe, 1 h; series mostly up to 39.2 µM
Inconclusive results are not listed. Activity calls are given as the source filed them. Calls come from the whole dose curve; as a rule, active = well fitted inhibition curve with a large enough effect; inconclusive = small, poorly fitted or top-dose-only effect; inactive = no such curve, though single readings can be large or run the other way.
Entry note: the call must match one of Y for active, N for inactive

1. COc1ccc(C2Nc3ccccc3C(=O)N2CC(C)(C)C)cc1COc1ccc(NC(C)=O)cc1 (centres undefined) :: N
2. COc1ccc(-c2cc(C(F)(F)F)n3nc(-c4ccc(Cl)cc4)cc3n2)cc1OC :: N
3. Cc1ccc(C)c(N2CCN(S(=O)(=O)c3cc(Br)cc4c3N(C(=O)C3CC3)CC4)CC2)c1 :: N
4. Cc1cccc(NC(=O)CSc2nc3c([nH]c4ccccc43)c(=O)n2C)c1 :: N
5. COc1ccc(-c2[nH]ncc2C(=O)NCc2cccc(OC)c2)cc1 :: N
6. COc1ccc(-c2ccc(CCC(=O)O)n2-c2ccccc2O)cc1 :: Y

Could you kindly confirm the outcome this assay logged for "COc1cccc(CN2CCCN(Cc3ccc(F)cc3)S2(=O)=O)c1" ?
N

Assay result, entry "O=c1c2ccccc2nc2sc(NS(=O)(=O)c3ccc4c(c3)CCC4)nn12" — outcome?
N

What call does the record list for "COC(=O)[C@@H]1[C@H]2C[C@H]3c4[nH]c5cc(OC)ccc5c4CCN3C[C@@H]2C[C@@H](OC(=O)c2cc(OC)c(OC)c(OC)c2)[C@@H]1OC" ?
Y
